# EXPERIMENTAL DETAILS: qHTS Assay for Lipid Storage Modulators (AID 1519); further: on the % scale 0 is the no-effect control and ±100 the full control effect
# SETTINGS: Drosophila S3 cells, BODIPY lipid droplet/cell ratio, laser cytometry; at 57.5 µM (top of the series); cells loaded with oleic acid
# Description: NIH Molecular Libraries Probe Production Centers Network [MLPCN] NIH Chemical Genomics Center [NCGC] Assay Submitter (PI): Beller, Mathias; Max-Planck-Institut fur Biophysikalische Chemie […] We dispensed 4 uL of cells at 1.25 x 10^6 cells/mL into LoBase Aurora COC 1,536-well plates (black walled, clear bottom) with a bottle-valve solenoid-based dispenser (Aurora) to obtain 5,000 cells/well. […] The ratio of the total intensity in PMT channel 1 over total intensity of channel 3 was also calculated. […]
Results filed as inconclusive are left out. Active and inactive are the calls of the source. The call rests on the fitted dose curve.
Listing: activity change, negative = inhibition of selected compounds

[
  {
    "COMPOUND": "C[C@@](Cc1ccc(O)c(O)c1)(NN)C(=O)O",
    "activity change, negative = inhibition": "-0.657% (inactive)"
  },
  {
    "COMPOUND": "CC1CCCC(C)N1NC(=O)c1ccc(Cl)c(S(N)(=O)=O)c1 (configuration not stated)",
    "activity change, negative = inhibition": "2.67% (inactive)"
  },
  {
    "COMPOUND": "O=C(CCCCCCCCCCCCC1CCCC1)Nc1ccc(S(=O)(=O)c2ccc(NC(=O)CCCCCCCCCCCCC3CCCC3)cc2)cc1",
    "activity change, negative = inhibition": "10% (inactive)"
  },
  {
    "COMPOUND": "O=C(NCCNCC(O)COc1ccc(O)cc1)N1CCOCC1 (configuration not stated)",
    "activity change, negative = inhibition": "-2.06% (inactive)"
  },
  {
    "COMPOUND": "CC[C@H]1OC(=O)[C@H](C)[C@@H](O[C@H]2C[C@@](C)(OC)[C@@H](O)[C@H](C)O2)C(C)[C@@H](O[C@@H]2O[C@H](C)C[C@H](N(C)C)[C@@H]2O)[C@](C)(OC)C[C@@H](C)C(=O)[C@H](C)[C@@H](O)[C@]1(C)O (some centres not stated)",
    "activity change, negative = inhibition": "7.44% (inactive)"
  },
  {
    "COMPOUND": "CC(=O)Nc1ccc(OC(=O)c2ccccc2O)cc1",
    "activity change, negative = inhibition": "5.77% (inactive)"
  },
  {
    "COMPOUND": "Nc1ncnc2c1ncn2[C@H]1CC[C@@H](CO)O1",
    "activity change, negative = inhibition": "1.8% (inactive)"
  },
  {
    "COMPOUND": "CC(C)c1nc(N(C)S(C)(=O)=O)nc(-c2ccc(F)cc2)c1/C=C/C(O)CC(O)CC(=O)O (configuration not stated)",
    "activity change, negative = inhibition": "2.85% (inactive)"
  },
  {
    "COMPOUND": "N[C@H](CC(=O)O)C(=O)O",
    "activity change, negative = inhibition": "-1.19% (inactive)"
  },
  {
    "COMPOUND": "CC(=O)Oc1cccc(C(=O)O)c1OC(C)=O",
    "activity change, negative = inhibition": "4.19% (inactive)"
  },
  {
    "COMPOUND": "O=C1c2ccccc2C(=O)c2c1ccc(O)c2O",
    "activity change, negative = inhibition": "15% (inactive)"
  },
  {
    "COMPOUND": "Oc1ccc(/C=C/c2cc(O)cc(O)c2)cc1",
    "activity change, negative = inhibition": "25.3% (inactive)"
  }
]
